# ASSAY SYSTEM: T1, Avi/HisMsIL18BPd (recombinant mouse IL-18BP with Avi and poly-His tags) (mouse, biotinylated with BirA on the Avi tag in some assays)
# T1 chain: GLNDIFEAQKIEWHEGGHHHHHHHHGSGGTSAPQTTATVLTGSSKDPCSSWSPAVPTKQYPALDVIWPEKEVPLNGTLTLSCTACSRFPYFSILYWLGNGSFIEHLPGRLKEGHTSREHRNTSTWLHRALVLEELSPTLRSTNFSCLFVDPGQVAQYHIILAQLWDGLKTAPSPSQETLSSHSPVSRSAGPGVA
# PROTOCOL TEXT: cell-based or functional assay
Hi! Could you tag entries with EC50 of IFNγ release, mouse splenocytes below 10 nM as Criterion met, and those at or above as Criterion not met? Much appreciated.

Use the examples below as a reference point.
- BINDER: "anti-IL18BP antibody BP-04 (antibody, V domains shown, also called BP-04 (hybridoma); BP-04 (parental)) VH: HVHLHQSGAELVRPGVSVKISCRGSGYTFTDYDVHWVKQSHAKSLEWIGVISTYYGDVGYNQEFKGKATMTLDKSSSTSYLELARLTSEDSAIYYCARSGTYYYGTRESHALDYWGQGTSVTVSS VL: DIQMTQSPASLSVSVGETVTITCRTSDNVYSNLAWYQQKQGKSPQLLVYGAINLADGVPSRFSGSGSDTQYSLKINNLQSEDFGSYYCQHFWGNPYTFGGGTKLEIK"
  GROUP: "Criterion not met"
- BINDER: "anti-IL-18BP antibody variant BP-04.03 (antibody, V domains shown) VH: QVQLVQSGAEVKKPGASVKVSCKASGYTFTDYDMHWVRQAPGQGLEWMGIISTYYGDVSYAQKFQGRVTMTRDKSTSTVYMELSSLRSENTAVYYCARSGTYYYGTREQHALDYWGQGTLVTVSS VL: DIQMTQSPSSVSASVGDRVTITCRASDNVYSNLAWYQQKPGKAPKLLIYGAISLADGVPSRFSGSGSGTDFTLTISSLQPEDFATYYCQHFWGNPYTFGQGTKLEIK"
  GROUP: "Criterion met"
- BINDER: "anti-IL-18BP antibody variant BP-04.15 (antibody, V domains shown) VH: QVQLVQSGAEVKKPGASVKVSCKASGYTFTDYDMHWVRQAPGQGLEWMGIISTYYGDVSYAQKFQGRVTMTRDKSTSTVYMELSSLRSEDTAVYYCARSGTYNYGTRESHPLDYWGQGTLVTVSS VL: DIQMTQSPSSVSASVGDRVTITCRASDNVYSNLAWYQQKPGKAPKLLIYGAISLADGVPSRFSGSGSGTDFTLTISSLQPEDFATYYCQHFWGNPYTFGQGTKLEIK"
  GROUP: "Criterion not met"
- BINDER: "anti-IL-18BP antibody variant BP-04.02 (antibody, V domains shown) VH: QVQLVQSGAEVKKPGASVKVSCKASGYTFTDYDLHWVRQAPGQGLEWMGIISTYYGDVSYAQKFQGRVTMTRDKSTSTVYMELSSLRSEDTAVYYCARSGMYYYGTRESHALDYWGQGTLVTVSS VL: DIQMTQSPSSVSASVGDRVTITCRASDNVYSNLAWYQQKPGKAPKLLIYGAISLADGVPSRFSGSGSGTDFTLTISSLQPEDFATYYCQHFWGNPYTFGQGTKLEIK"
  GROUP: "Criterion not met"

Next up:
Asked: Please let me know if anti-IL-18BP antibody variant BP-04.27 (antibody, V domains shown) VH: QVQLVQSGAEVKKPGASVKVSCKASGYTFTDYDMHWVRQAPGQGLEWMGIISTYYGDVSYAQKFQGRVTMTRDKSTSTVYMELSSLRSEDTAVYYCARSGTYYYGTRESHAFDYWGQGTLVTVSS VL: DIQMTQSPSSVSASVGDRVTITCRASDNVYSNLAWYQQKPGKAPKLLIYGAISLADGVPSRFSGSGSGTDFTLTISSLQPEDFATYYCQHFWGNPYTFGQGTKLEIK shows EC50 of IFNγ release, mouse splenocytes below 10 nM.
Given back: Criterion not met
